# TEST_SYSTEM: T1, 4H2935-AA
# T1 chain: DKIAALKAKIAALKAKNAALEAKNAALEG
# ASSAY_TEXT: two-hybrid library CCmax;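 note: natural log of median RNA to DNA barcode read ratio; higher means stronger binding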
# PROTOCOL_CONDITIONS: mean of both orientations
QUANTITY: interaction score

[
  {
    "BINDER": "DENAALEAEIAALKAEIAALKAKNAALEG [4H1103-AA]",
    "QUANTITY": "interaction score",
    "VALUE_MEASURED": -1.16
  },
  {
    "BINDER": "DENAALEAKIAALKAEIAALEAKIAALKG [4H1350-AA]",
    "QUANTITY": "interaction score",
    "VALUE_MEASURED": -0.765
  },
  {
    "BINDER": "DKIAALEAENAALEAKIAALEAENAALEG [4H2211-AA]",
    "QUANTITY": "interaction score",
    "VALUE_MEASURED": -1.25
  },
  {
    "BINDER": "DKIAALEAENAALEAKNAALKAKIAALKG [4H2238-AA]",
    "QUANTITY": "interaction score",
    "VALUE_MEASURED": -1.18
  },
  {
    "BINDER": "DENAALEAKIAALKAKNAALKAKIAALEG [4H1405-AA]",
    "QUANTITY": "interaction score",
    "VALUE_MEASURED": -1.84
  },
  {
    "BINDER": "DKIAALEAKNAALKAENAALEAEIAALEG [4H2513-AA]",
    "QUANTITY": "interaction score",
    "VALUE_MEASURED": -2.01
  },
  {
    "BINDER": "DKIAALEAKNAALKAKIAALEAKNAALKG [4H2536-AA]",
    "QUANTITY": "interaction score",
    "VALUE_MEASURED": -1.66
  },
  {
    "BINDER": "DKIAALKAEIAALEAKNAALEAKIAALKG [4H2614-AA]",
    "QUANTITY": "interaction score",
    "VALUE_MEASURED": 0.084
  },
  {
    "BINDER": "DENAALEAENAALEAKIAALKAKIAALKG [4H1198-AA]",
    "QUANTITY": "interaction score",
    "VALUE_MEASURED": -1.5
  }
]
